Sourced from ChEMBL document CHEMBL4706593

- experimental-system: Protein cereblon/Histone deacetylase 1 (Mus musculus) (UniProt O09106+Q8C7D2)
- Sequence (O09106 whole entry, looked up): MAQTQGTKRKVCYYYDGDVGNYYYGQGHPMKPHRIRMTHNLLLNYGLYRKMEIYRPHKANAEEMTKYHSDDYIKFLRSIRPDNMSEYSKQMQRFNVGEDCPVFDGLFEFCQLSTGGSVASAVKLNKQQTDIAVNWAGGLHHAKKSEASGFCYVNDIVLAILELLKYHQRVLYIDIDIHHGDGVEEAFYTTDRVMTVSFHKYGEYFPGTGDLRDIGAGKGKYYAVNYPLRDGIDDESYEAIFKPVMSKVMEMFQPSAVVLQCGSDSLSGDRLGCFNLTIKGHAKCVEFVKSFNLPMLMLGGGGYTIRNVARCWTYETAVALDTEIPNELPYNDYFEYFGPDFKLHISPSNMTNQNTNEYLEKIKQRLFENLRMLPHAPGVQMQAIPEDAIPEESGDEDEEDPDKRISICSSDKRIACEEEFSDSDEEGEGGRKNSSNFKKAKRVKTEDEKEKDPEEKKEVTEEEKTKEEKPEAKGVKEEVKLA
- Sequence (Q8C7D2 whole entry, looked up): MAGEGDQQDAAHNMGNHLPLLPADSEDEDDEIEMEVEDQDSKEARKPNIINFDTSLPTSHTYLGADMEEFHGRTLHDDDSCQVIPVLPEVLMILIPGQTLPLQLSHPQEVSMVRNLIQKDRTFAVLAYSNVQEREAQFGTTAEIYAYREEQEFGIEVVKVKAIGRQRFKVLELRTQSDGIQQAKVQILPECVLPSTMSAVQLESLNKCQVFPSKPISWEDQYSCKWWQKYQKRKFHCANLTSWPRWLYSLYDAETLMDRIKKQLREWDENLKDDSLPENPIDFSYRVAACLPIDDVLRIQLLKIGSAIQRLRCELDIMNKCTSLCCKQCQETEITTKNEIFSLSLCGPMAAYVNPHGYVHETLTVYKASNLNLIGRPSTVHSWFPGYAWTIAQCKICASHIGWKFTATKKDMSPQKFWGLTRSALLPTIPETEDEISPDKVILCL
- assay-notes: Protac activity at CRBN/HDAC1 in mouse RAW264.7 cells assessed as induction of HDAC1 degradation at 10 uM by Western blot analysis
- Type: cell-based
Calls of active or inactive are those of the source. The calls are words filed in the database; no cut-off is given here.
measured-endpoint: Activity

molecule: Nc1ccccc1NC(=O)c1ccc(NC(=O)CCCCCNc2cccc3c2C(=O)N(C2CCC(=O)NC2=O)C3=O)cc1 (stereo not given)
experimental-system: Protein cereblon/Histone deacetylase 1 (Mus musculus) (UniProt O09106+Q8C7D2)
test-value: inactive
--
molecule: Nc1ccccc1NC(=O)c1ccc(NC(=O)CCCNC(=O)CNc2cccc3c2C(=O)N(C2CCC(=O)NC2=O)C3=O)cc1 (stereo not given)
experimental-system: Protein cereblon/Histone deacetylase 1 (Mus musculus) (UniProt O09106+Q8C7D2)
test-value: inactive
--
molecule: Nc1ccccc1NC(=O)c1ccc(NC(=O)CCCCNC(=O)CNc2cccc3c2C(=O)N(C2CCC(=O)NC2=O)C3=O)cc1 (stereo not given)
experimental-system: Protein cereblon/Histone deacetylase 1 (Mus musculus) (UniProt O09106+Q8C7D2)
test-value: inactive
--
molecule: Nc1ccccc1NC(=O)c1ccc(NC(=O)CCCNc2cccc3c2C(=O)N(C2CCC(=O)NC2=O)C3=O)cc1 (stereo not given)
experimental-system: Protein cereblon/Histone deacetylase 1 (Mus musculus) (UniProt O09106+Q8C7D2)
test-value: inactive

Item Nc1ccccc1NC(=O)c1ccc(NC(=O)CCCCNc2cccc3c2C(=O)N(C2CCC(=O)NC2=O)C3=O)cc1 (stereo not given) was tested on Protein cereblon/Histone deacetylase 1 (Mus musculus) (UniProt O09106+Q8C7D2); the reported Activity is inactive

----------
- experimental-system: Histone deacetylase 3/Nuclear receptor corepressor 2 (HDAC3/NCoR2) (Homo sapiens)
- Sequence (O15379 whole entry, the tested form may be a part): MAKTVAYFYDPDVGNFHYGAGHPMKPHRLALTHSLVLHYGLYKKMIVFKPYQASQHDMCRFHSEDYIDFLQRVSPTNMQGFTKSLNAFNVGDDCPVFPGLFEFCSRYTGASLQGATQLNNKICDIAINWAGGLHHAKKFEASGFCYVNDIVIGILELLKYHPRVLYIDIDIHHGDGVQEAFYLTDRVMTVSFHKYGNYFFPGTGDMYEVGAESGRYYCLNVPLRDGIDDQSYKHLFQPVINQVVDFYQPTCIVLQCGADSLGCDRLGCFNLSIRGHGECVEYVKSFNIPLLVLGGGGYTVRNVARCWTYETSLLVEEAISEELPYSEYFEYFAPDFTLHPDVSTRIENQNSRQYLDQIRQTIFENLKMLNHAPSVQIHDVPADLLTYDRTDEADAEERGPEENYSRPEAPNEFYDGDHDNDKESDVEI
- Sequence (Q9Y618 whole entry, further chain, the tested form may be a part): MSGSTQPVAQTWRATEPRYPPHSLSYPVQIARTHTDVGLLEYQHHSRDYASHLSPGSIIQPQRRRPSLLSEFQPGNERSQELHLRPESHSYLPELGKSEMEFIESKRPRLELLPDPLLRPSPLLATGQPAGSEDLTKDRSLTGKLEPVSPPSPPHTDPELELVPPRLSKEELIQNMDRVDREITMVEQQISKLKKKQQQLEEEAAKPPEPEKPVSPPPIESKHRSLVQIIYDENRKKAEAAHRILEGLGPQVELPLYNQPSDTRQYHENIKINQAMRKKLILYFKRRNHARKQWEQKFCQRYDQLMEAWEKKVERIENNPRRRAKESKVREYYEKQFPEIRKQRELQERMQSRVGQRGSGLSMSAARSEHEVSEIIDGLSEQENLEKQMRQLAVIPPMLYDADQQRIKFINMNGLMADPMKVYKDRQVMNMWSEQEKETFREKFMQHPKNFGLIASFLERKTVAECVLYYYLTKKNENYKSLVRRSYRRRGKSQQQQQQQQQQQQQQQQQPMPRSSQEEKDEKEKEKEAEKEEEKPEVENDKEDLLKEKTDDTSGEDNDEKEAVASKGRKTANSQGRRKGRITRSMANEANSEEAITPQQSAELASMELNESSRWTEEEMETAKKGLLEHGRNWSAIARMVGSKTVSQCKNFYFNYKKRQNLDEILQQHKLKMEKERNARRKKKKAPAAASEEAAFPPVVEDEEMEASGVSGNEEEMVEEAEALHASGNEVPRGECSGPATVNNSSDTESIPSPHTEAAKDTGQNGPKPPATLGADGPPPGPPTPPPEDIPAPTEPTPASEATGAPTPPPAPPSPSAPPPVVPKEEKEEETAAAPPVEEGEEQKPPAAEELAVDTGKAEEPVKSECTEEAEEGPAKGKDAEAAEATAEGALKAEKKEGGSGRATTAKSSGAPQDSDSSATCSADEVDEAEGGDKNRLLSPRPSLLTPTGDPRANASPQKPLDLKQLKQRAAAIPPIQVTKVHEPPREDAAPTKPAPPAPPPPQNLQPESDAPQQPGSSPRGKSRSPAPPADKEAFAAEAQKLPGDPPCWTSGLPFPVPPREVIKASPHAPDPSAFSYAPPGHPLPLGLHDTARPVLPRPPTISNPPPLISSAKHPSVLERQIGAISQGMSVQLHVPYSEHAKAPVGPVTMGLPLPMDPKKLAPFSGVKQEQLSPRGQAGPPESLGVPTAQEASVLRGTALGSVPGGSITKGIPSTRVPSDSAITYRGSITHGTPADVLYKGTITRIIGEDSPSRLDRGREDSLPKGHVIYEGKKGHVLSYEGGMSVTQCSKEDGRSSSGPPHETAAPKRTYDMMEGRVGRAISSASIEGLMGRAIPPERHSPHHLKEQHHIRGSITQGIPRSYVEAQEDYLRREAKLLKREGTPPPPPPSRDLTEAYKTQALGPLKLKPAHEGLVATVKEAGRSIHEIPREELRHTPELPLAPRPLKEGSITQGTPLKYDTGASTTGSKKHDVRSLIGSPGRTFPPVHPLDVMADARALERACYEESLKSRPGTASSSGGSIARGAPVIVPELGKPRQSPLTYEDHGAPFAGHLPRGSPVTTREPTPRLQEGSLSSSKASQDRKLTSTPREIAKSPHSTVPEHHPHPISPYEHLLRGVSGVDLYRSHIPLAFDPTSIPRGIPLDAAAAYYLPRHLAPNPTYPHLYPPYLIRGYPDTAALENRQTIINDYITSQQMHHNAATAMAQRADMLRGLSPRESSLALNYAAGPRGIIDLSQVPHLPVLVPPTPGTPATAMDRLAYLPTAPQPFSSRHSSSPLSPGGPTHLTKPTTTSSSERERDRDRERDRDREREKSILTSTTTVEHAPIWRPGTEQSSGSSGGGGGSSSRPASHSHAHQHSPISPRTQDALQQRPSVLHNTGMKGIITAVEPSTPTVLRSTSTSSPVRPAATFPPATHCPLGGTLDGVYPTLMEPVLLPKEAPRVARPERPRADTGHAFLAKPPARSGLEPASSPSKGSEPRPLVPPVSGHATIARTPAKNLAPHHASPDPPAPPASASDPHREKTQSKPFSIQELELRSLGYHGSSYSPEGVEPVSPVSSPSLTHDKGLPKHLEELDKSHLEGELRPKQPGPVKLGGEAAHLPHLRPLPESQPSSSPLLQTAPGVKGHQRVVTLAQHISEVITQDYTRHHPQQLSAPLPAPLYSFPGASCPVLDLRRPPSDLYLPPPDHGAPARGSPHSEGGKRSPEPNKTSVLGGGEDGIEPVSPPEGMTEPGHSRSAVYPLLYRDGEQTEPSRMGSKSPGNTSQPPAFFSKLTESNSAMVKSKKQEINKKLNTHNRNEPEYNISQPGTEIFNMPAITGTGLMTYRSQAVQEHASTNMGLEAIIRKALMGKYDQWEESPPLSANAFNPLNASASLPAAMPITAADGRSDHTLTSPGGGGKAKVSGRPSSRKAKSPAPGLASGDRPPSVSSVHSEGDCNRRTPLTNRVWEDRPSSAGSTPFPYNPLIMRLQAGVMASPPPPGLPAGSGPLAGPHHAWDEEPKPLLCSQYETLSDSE
- assay-notes: Inhibition of human recombinant C-terminal His-tagged HDAC3 (1 to 428 residues)/N-terminal GST-tagged NCOR2 (395 to 489 residues) expressed in baculovirus infected Sf9 insect cells using Boc-Lys(epsilon-Ac)-AMC as substrate measured after 90 mins by fluorescence assay
This section presents compounds with their documented IC50 values.

compound: Nc1cc(F)ccc1NC(=O)c1ccc(NC(=O)CCCCNC(=O)CNc2cccc3c2C(=O)N(C2CCC(=O)NC2=O)C3=O)cc1 (stereo unspecified)
test-value: 1100 nM
--
compound: Nc1ccccc1NC(=O)c1ccc(NC(=O)CCCCNC(=O)CNc2cccc3c2C(=O)N(C2CCC(=O)NC2=O)C3=O)cc1 (stereo unspecified)
test-value: 520 nM

Item Nc1ccccc1NC(=O)c1ccc(NC(=O)CCCCCNc2cccc3c2C(=O)N(C2CCC(=O)NC2=O)C3=O)cc1 (stereo unspecified) was tested on Histone deacetylase 3/Nuclear receptor corepressor 2 (HDAC3/NCoR2) (Homo sapiens); the reported IC50 is 540 nM

Item Nc1ccccc1NC(=O)c1ccc(NC(=O)CCCNc2cccc3c2C(=O)N(C2CCC(=O)NC2=O)C3=O)cc1 (stereo unspecified) was tested on Histone deacetylase 3/Nuclear receptor corepressor 2 (HDAC3/NCoR2) (Homo sapiens); the reported IC50 is 870 nM

Item Nc1ccccc1NC(=O)c1ccc(NC(=O)CCCNC(=O)CNc2cccc3c2C(=O)N(C2CCC(=O)NC2=O)C3=O)cc1 (stereo unspecified) was tested on Histone deacetylase 3/Nuclear receptor corepressor 2 (HDAC3/NCoR2) (Homo sapiens); the reported IC50 is 560 nM

Item Nc1ccccc1NC(=O)c1ccc(NC(=O)CCCCNc2cccc3c2C(=O)N(C2CCC(=O)NC2=O)C3=O)cc1 (stereo unspecified) was tested on Histone deacetylase 3/Nuclear receptor corepressor 2 (HDAC3/NCoR2) (Homo sapiens); the reported IC50 is 1000 nM

----------
- experimental-system: Histone deacetylase 1 (Homo sapiens, UniProt Q13547)
- Sequence (Q13547 whole entry, the tested form may be a part): as the sequence (O09106 whole entry, looked up) above, with K8R, E399D, D424E counted along it
- assay-notes: Inhibition of recombinant human C-terminal His/FLAG-tagged HDAC1 (1 to 482 residues) expressed in Sf9 insect cells using Boc-Lys(epsilon-Ac)-AMC as substrate measured after 90 mins by fluorescence assay
measured-endpoint: pIC50
By convention, pIC50 is the negative base-10 log of a molar concentration.

Known pIC50 results, listed for orientation:
compound: Nc1ccccc1NC(=O)c1ccc(NC(=O)CCCCNc2cccc3c2C(=O)N(C2CCC(=O)NC2=O)C3=O)cc1 (stereo unspecified)
experimental-system: Histone deacetylase 1 (Homo sapiens, UniProt Q13547)
pIC50: 6.38
//
compound: Nc1ccccc1NC(=O)c1ccc(NC(=O)CCCCCNc2cccc3c2C(=O)N(C2CCC(=O)NC2=O)C3=O)cc1 (stereo unspecified)
experimental-system: Histone deacetylase 1 (Homo sapiens, UniProt Q13547)
pIC50: 6.66
//
compound: Nc1ccccc1NC(=O)c1ccc(NC(=O)CCCNC(=O)CNc2cccc3c2C(=O)N(C2CCC(=O)NC2=O)C3=O)cc1 (stereo unspecified)
experimental-system: Histone deacetylase 1 (Homo sapiens, UniProt Q13547)
pIC50: 6.49
//
compound: Nc1cc(F)ccc1NC(=O)c1ccc(NC(=O)CCCCNC(=O)CNc2cccc3c2C(=O)N(C2CCC(=O)NC2=O)C3=O)cc1 (stereo unspecified)
experimental-system: Histone deacetylase 1 (Homo sapiens, UniProt Q13547)
pIC50: 5.44
//
compound: Nc1ccccc1NC(=O)c1ccc(NC(=O)CCCNc2cccc3c2C(=O)N(C2CCC(=O)NC2=O)C3=O)cc1 (stereo unspecified)
experimental-system: Histone deacetylase 1 (Homo sapiens, UniProt Q13547)
pIC50: 6.44

response.value for Nc1ccccc1NC(=O)c1ccc(NC(=O)CCCCNC(=O)CNc2cccc3c2C(=O)N(C2CCC(=O)NC2=O)C3=O)cc1 (stereo unspecified) (field: pIC50) = 6.54

----------
- experimental-system: Histone deacetylase 2 (Homo sapiens, UniProt Q92769)
- Sequence (Q92769 whole entry): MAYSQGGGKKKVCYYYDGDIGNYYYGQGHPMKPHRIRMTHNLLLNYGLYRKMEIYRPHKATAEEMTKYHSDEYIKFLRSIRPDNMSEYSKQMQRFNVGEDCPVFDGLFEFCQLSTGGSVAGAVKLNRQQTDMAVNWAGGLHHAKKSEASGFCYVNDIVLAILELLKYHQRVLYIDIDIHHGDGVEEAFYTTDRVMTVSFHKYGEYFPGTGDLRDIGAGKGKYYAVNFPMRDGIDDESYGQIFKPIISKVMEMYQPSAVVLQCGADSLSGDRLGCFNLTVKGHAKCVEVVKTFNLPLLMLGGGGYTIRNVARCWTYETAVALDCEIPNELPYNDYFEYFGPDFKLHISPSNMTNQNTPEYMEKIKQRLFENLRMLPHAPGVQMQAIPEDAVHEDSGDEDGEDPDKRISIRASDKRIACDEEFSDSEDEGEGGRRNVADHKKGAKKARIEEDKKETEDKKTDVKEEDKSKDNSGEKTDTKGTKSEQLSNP
- assay-notes: Inhibition of recombinant human full-length C-terminal FLAG-tagged HDAC2 expressed in baculovirus infected Sf9 insect cells using Boc-Lys(epsilon-Ac)-AMC as substrate measured after 90 mins by fluorescence assay
pIC50: −log10 of the molar value.
Please mark Satisfied if the recorded pIC50 is equal to or greater than 6, and Not satisfied if it falls below.

molecule: Nc1ccccc1NC(=O)c1ccc(NC(=O)CCCCNC(=O)CNc2cccc3c2C(=O)N(C2CCC(=O)NC2=O)C3=O)cc1 (stereo unspecified)
experimental-system: Histone deacetylase 2 (Homo sapiens, UniProt Q92769)
label: Satisfied

input: Test whether the molecule Nc1cc(F)ccc1NC(=O)c1ccc(NC(=O)CCCCNC(=O)CNc2cccc3c2C(=O)N(C2CCC(=O)NC2=O)C3=O)cc1 (stereo unspecified) records pIC50 of 6 or higher.
output: Not satisfied

----------
- experimental-system: Histone deacetylase 2 (Homo sapiens)
- assay-notes: Inhibition of recombinant human full-length C-terminal FLAG-tagged HDAC2 expressed in baculovirus infected Sf9 insect cells using Boc-Lys(epsilon-Ac)-AMC as substrate measured after 90 mins by fluorescence assay
measured-endpoint: IC50 (nM)
Use nM as the unit, but write only the number.

compound: Nc1ccccc1NC(=O)c1ccc(NC(=O)CCCCNc2cccc3c2C(=O)N(C2CCC(=O)NC2=O)C3=O)cc1 (centres undefined)
IC50, nM: 1000
//
compound: Nc1ccccc1NC(=O)c1ccc(NC(=O)CCCCCNc2cccc3c2C(=O)N(C2CCC(=O)NC2=O)C3=O)cc1 (centres undefined)
IC50, nM: 970
//
compound: Nc1ccccc1NC(=O)c1ccc(NC(=O)CCCNC(=O)CNc2cccc3c2C(=O)N(C2CCC(=O)NC2=O)C3=O)cc1 (centres undefined)
IC50, nM: 1500

response.value for Nc1ccccc1NC(=O)c1ccc(NC(=O)CCCNc2cccc3c2C(=O)N(C2CCC(=O)NC2=O)C3=O)cc1 (centres undefined) (field: IC50) = 1200
